assay: protein stability index of a GFP-peptide fusion (GPS, HEK-293T) (PSI 1-6); higher = more stable; settings: treatment: DMSO; c terminus: a fixed tail appended;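 also: 24-mer peptide tiles fused after GFP, lentivirally expressed, FACS-sorted into six equal bins by GFP/DsRed ratio, decoded by Illumina sequencing, PSI is the read-weighted mean bin number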
MEASURED QUANTITY: protein stability index
# respond with the number and nothing more

protein stability index lookup needed for CSCEWMAAMFGGSFVESANSEVYL [RHOBTB1] , thanks.
2.96

Any idea what protein stability index was measured for GGSCRAPSTYGGGLSVSSRFSSGG [KRT16] ?
2.97

What value of protein stability index has been reported for the following sequence? ELVSADVIDLFDEQGLSALHLAAQ [RIPK4]
3.02

Sample RRKCGQYWPLEKDSRIRFGFLTVT [PTPN9] — what was its protein stability index?
2.3

Which protein stability index is reported for this sequence? LCHCGKAFSHKSMRDRHVNMHLNL [ZBTB22]
2.21

Name the recorded protein stability index for IGCKKPVSASGKEMDWAQMACHRC [SMG5] .
3.04

I have this sequence here, HGEEEVETFAFQAEIAQLMSLIIN [HSP90AB1] , and I need its recorded protein stability index.
2.58

Query (sequence): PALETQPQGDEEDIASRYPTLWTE [SMOC2] ; field requested: protein stability index
4.78

Consider the sequence PVVSAVWGHCEVTMRYINGLDPEP [SPSB4] and give its measured protein stability index.
2.28

Value lookup for protein stability index; key = ELKLEQQEAAERESKLLRDLSAAN [LRRC45]
4.62

What protein stability index value was documented for this sequence, ISPWNLPLYLLTWKIAPAMAAGNT [ALDH8A1] ?
3.06

# protein stability index lookup, item NNWPPLPSFCPVQPCFFQDISMEI [SCAMP3]
2.4

Look at this sequence and give its reported protein stability index. SGLRMVPEHRAFGSPFGLEEPQWV [ZFYVE21]
2.8
